# EXPERIMENTAL_SYSTEM: pig pancreas esterase
# EXPERIMENT_DESCRIPTION: esterase-inhibiting activity, crude pig pancreas lipase preparation with p-nitrophenyl acetate as substrate
# Assay type: biochemical
# EXPERIMENTAL_SETUP: p-nitrophenyl acetate substrate, pH 7.0, 20° C., 30 minutes; pure products
MEASURED_PROPERTY: ID50, dose giving 50% inhibition to esterase (ng/mL)

Worked examples follow.
COMPOUND | RESULT_UNIT | RESULT_VALUE
CCCCCCCCCCCC(CC1OC(=O)C1CCCCCC)OC(=O)C(CC(N)=O)NC(C)=O (stereo not shown) [tetrahydroesterastin] | ng/mL | 3.3
CCCCCC=CCC=CCC(O)CC1OC(=O)C1CCCCCC (stereo not shown) | ng/mL | 7

(P) CCCCCCCCCCCC(O)CC1OC(=O)C1CCCCCC (stereo not shown)
(Q) CCCCCC=CCC=CCC(CC1OC(=O)C1CCCCCC)OC(=O)C(CC(N)=O)NC(C)=O (stereo not shown)
Query block: Return label of the item with the larger ID50, dose giving 50% inhibition to esterase. Candidates: P , Q . Your answer should be the label attached to the chosen record.
Result block: P

----------
# EXPERIMENTAL_SYSTEM: pig pancreas esterase
# EXPERIMENT_DESCRIPTION: esterase-inhibiting activity, crude pig pancreas lipase preparation with p-nitrophenyl acetate as substrate
# EXPERIMENTAL_SETUP: pig pancreas esterase, p-nitrophenyl acetate as the substrate; read-out: level giving 50% inhibition of the esterase
MEASURED_PROPERTY: IC50 (nM)

MOLECULE | RESULT_UNIT | IC50
CCCCCC=CCC=CCC(O)CC1OC(=O)C1CCCCCC (stereo not drawn) | nM | 20

(P) CCCCCCCCCCCC(O)CC1OC(=O)C1CCCCCC (stereo not drawn)
(Q) CCCCCCCCCCCC(CC1OC(=O)C1CCCCCC)OC(=O)C(CC(N)=O)NC(C)=O (stereo not drawn) [tetrahydroesterastin]
Query block: Min IC50? P | Q Your answer should be the label attached to the chosen record.
Result block: Q
